experiment: physchem
Assay type: physicochemical
Where a SMILES comes first, the peptide text is derived from it.
Listing of recorded solubility by entry.

molecule	solubility, mM
CC(C)C[C@H](NC(=O)[C@@H](N)Cc1ccccc1)C(N)=O [H-Phe-Leu-NH2, reference compound] (H-Phe-Leu-NH2)	0.5
CC(C)C[C@H](NC(=O)[C@@H](N)Cc1ccccc1)C(=O)NC1c2ccc(OCCCCCCCCCCCO[Si](C(C)C)(C(C)C)C(C)C)cc2Oc2cc(OCCCCCCCCCCCO[Si](C(C)C)(C(C)C)C(C)C)ccc21 [H-Phe-Leu-NH-(TIPS2-Xtn)]	586
